Data provenance is the supplement of paper PMC3334620.

# tested.on: Sut1 (UniProt P53032)
# Sequence: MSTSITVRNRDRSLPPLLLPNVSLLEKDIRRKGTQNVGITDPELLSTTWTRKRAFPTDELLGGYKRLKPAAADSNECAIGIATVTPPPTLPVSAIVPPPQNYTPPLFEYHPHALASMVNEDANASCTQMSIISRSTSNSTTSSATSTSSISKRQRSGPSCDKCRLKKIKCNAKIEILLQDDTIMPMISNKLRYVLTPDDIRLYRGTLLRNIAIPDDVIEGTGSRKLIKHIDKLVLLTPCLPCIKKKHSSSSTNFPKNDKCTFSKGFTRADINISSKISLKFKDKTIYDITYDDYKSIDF
# test.details: PBM E-score (8-mer binding enrichment) (E-score (-0.5 to 0.5)); higher = stronger / more preferred TF binding
# run.parameters: protein concentration: 200 nM; construct: GST-full length
The full ranking holds about 33,000 sequences; the median of “E-score (-0.5 to 0.5)” is about -0.017, and the highest 2% start at about 0.3. The sample holds the highest values, similar sequences and a random draw of the others, so the mix is not that of the screen.
metric: PBM E-score
In your answer, state the number alone without any accompanying words.

Below: 5 sequences and their reported PBM E-score.
1. CAATCTAG; -0.0129
2. GTCATAGA; -0.0539
3. GTAATTTA; 0.221
4. AGTAATTC; 0.307
5. ATATCGGC; -0.0245

Reported PBM E-score for CAACCGGA : what is it?
0.338

AAGTTACC ?
0.158

ATAATTAG ?
0.235

AGGCTCCA ?
-0.178

CAACGGGA ?
0.0235
